- Experimental protocol: Exploratory water solubility in 10 mM Tris-HCl buffer, pH 7.4
- Format: physicochemical
- Condition notes: aqueous buffer (10 mM Tris-HCl), 20 °C
Readout kind: Solubility

Item: CCOc1ccc(C[C@H]2CN(CC(=O)[O-])CCN(CC(=O)[O-])CCN(CC(=O)O)CCN2CC(=O)[O-])cc1.[Gd+3] (single isomer, unassigned; stereoisomer 1) [Example 10] | Solubility: >23 mM

The compound listed as "COCCOCCOCCOc1ccc(C[C@H]2CN(CC(=O)[O-])CCN(CC(=O)[O-])CCN(CC(=O)O)CCN2CC(=O)[O-])cc1.[Gd+3]" shows Solubility equal to >201 mM

// recorded Solubility for CCOc1ccc(C[C@H]2CN(CC(=O)[O-])CCN(CC(=O)[O-])CCN(CC(=O)O)CCN2CC(=O)[O-])cc1.[Gd+3] (single isomer, unassigned; stereoisomer 2) [Example 11] : >146 mM

# Solubility (compound: CCCCOc1ccc(C[C@H]2CN(CC(=O)[O-])CCN(CC(=O)[O-])CCN(CC(=O)O)CCN2CC(=O)[O-])cc1.[Gd+3] (single isomer, unassigned; stereoisomer 1) [Example 12] ) is 211 mM

Next:
So, CCOc1ccc(CC2CN(CC(=O)[O-])CCN(CC(=O)[O-])CCN(CC(=O)O)CCN2CC(=O)[O-])cc1.[Gd+3] (centres unmarked) [Example 7] ? Its Solubility was >403 mM

----------
- Experimental protocol: Relaxivity measurements at 1.41 T in water and human plasma
- Assay type: physicochemical
- Condition notes: human plasma, 37 °C, normalized to Gd
Items are presented alongside their recorded r1 human plasma.
# output: bare number, implied unit L/mmol/s

Example cases with answers are listed next.
So, CCOc1ccc(CC2CN(CC(=O)[O-])CCN(CC(=O)[O-])CCN(CC(=O)O)CCN2CC(=O)[O-])cc1.[Gd+3] (single isomer, unassigned; diastereomer 1) [Example 8] ? Its r1 human plasma was 6.5

Reported r1 human plasma ( CCCCOc1ccc(C[C@H]2CN(CC(=O)[O-])CCN(CC(=O)[O-])CCN(CC(=O)O)CCN2CC(=O)[O-])cc1.[Gd+3] (single isomer, unassigned; stereoisomer 2) [Example 13] ) = 9.8

Record "COCCOCCOCCOc1ccc(C[C@H]2CN(CC(=O)[O-])CCN(CC(=O)[O-])CCN(CC(=O)O)CCN2CC(=O)[O-])cc1.[Gd+3]" , field r1 human plasma: 6.6

For reference, reported r1 human plasma for "COCCOCCOCCOc1ccc(C[C@@H]2CN(CC(=O)[O-])CCN(CC(=O)[O-])CCN(CC(=O)O)CCN2CC(=O)[O-])cc1.[Gd+3]" stands at 6.8

Kindly note the recorded r1 human plasma for "CCOCCOCCOCCOc1ccc(C[C@H]2CN(CC(=O)[O-])CCN(CC(=O)[O-])CCN(CC(=O)O)CCN2CC(=O)[O-])cc1.[Gd+3]" , which is 5.7

***
Recorded r1 human plasma (molecule CCOc1ccc(CC2CN(CC(=O)[O-])CCN(CC(=O)[O-])CCN(CC(=O)O)CCN2CC(=O)[O-])cc1.[Gd+3] (single isomer, unassigned; diastereomer 2) [Example 9] ): 5.6

The recorded r1 human plasma for entry "CCOCCOCCOc1ccc(C[C@H]2CN(CC(=O)[O-])CCN(CC(=O)[O-])CCN(CC(=O)O)CCN2CC(=O)[O-])nc1.[Gd+3]" equals 5.9

Lab note: CCOc1ccc(C[C@H]2CN(CC(=O)[O-])CCN(CC(=O)[O-])CCN(CC(=O)O)CCN2CC(=O)[O-])cc1.[Gd+3] (single isomer, unassigned; stereoisomer 2) [Example 11] gave r1 human plasma of 6.2

Looking up "CCOCCOc1ccc(C[C@H]2CN(CC(=O)[O-])CCN(CC(=O)[O-])CCN(CC(=O)O)CCN2CC(=O)[O-])cc1.[Gd+3]" , I found its r1 human plasma recorded as 6.6

Value of r1 human plasma reported for the molecule CCCCOc1ccc(C[C@H]2CN(CC(=O)[O-])CCN(CC(=O)[O-])CCN(CC(=O)O)CCN2CC(=O)[O-])cc1.[Gd+3] (single isomer, unassigned; stereoisomer 1) [Example 12] is 8.8

Lab note: measured r1 human plasma of "CCOCCOCCOc1ccc(C[C@H]2CN(CC(=O)[O-])CCN(CC(=O)[O-])CCN(CC(=O)O)CCN2CC(=O)[O-])cc1.[Gd+3]" was 5.9

Query CCOc1ccc(C[C@H]2CN(CC(=O)[O-])CCN(CC(=O)[O-])CCN(CC(=O)O)CCN2CC(=O)[O-])cc1.[Gd+3] (single isomer, unassigned; stereoisomer 1) [Example 10] yields r1 human plasma of 6.4

// CCOc1ccc(CC2CN(CC(=O)[O-])CCN(CC(=O)[O-])CCN(CC(=O)O)CCN2CC(=O)[O-])cc1.[Gd+3] (stereo not shown) [Example 7] : r1 human plasma value = 6.2
